Target: Bcl-2-like protein 1 (Homo sapiens)
Sequence (Q07817 whole entry): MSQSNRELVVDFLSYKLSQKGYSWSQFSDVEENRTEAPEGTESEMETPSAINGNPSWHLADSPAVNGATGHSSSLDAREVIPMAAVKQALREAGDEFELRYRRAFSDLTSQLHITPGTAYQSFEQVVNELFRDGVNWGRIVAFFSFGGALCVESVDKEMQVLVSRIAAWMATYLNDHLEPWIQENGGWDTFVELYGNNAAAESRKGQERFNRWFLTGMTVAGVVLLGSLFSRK
Test: Binding affinity to full length human Bcl-xl expressed in Escherichia coli BL21 (DE3) at up to 100 uM preincubated for 30 mins followed by 5-FAM-QEDIIIINIARHLAQVGDSMD-RSIPPG tracer addition and measured after 20 mins by fluorescence polarization assay
Conditions: dose microM <=100, time 50.0 min
Calls of active or inactive are those of the source. How the calls were made is not given here.
value-kind: Activity

- molecule-smiles: "Cc1ccc(-c2ccsc2S(=O)(=O)NCCNC(=O)Nc2cc(C(F)(F)F)cc(C(F)(F)F)c2)c(Oc2ccc(O)c(O)c2)c1"
  system: "Bcl-2-like protein 1 (Homo sapiens)"
  test-result: "inactive"
- molecule-smiles: "O=[N+]([O-])c1ccc(NC(=S)NCCNS(=O)(=O)c2ccc(-c3ccccc3O[C@H]3CC[C@H](O)CC3)s2)cc1"
  system: "Bcl-2-like protein 1 (Homo sapiens)"
  test-result: "inactive"
- molecule-smiles: "COc1cccc(NC(=S)NCCNS(=O)(=O)c2ccc(-c3ccccc3Oc3ccc([N+](=O)[O-])cc3)s2)c1"
  system: "Bcl-2-like protein 1 (Homo sapiens)"
  test-result: "inactive"
